# tested.system: Neuraminidase (Influenza B virus)
# setup.conditions: Influenza B virus (B/Perth/211/2001)
measure: T1/2 (h)
Respond numerically; units are h and should not be typed.

>  <smiles.string>
CC(=O)N[C@@H]1C[C@@H](F)[C@](F)(C(=O)O)O[C@H]1[C@H](O)[C@H](O)CO

>  <tested.system>
Neuraminidase (Influenza B virus)

>  <reading>
0.487

$$$$
>  <smiles.string>
CC(=O)N[C@@H]1[C@@H](O)[C@@H](F)[C@](F)(C(=O)O)O[C@H]1C[C@H](O)CO

>  <tested.system>
Neuraminidase (Influenza B virus)

>  <reading>
1.15

$$$$
>  <smiles.string>
CC(=O)N[C@@H]1[C@@H](O)[C@@H](F)[C@](F)(C(=O)O)O[C@H]1[C@H](O)CCO

>  <tested.system>
Neuraminidase (Influenza B virus)

>  <reading>
3.09

$$$$

Query string: T1/2 of CC(=O)N[C@@H]1[C@@H](O)[C@@H](F)[C@](F)(C(=O)O)O[C@H]1[C@H](O)[C@H](O)CO on Neuraminidase (Influenza B virus)?
Result string: 0.727
